Every entry's value here was drawn from paper PMC10786304.

- Tested on: purified M. smegmatis ATCC 19420 ribosomes
- Run Description: Mycobacterial cell-free translation inhibition assay
- Format: biochemical, Mycobacterium smegmatis
- Test Conditions: read-out: IC50 M. smg ribo
pIC50: −log10 of the molar value.

Molecule: CN[C@@H]1[C@H](O)[C@H](NC)[C@H]2O[C@@]3(O)C(=O)C[C@@H](C)O[C@H]3O[C@@H]2[C@H]1O
pIC50: 6.10
